target: Chorismate synthase (Escherichia coli) (UniProt P12008)
Sequence (P12008 whole entry, looked up): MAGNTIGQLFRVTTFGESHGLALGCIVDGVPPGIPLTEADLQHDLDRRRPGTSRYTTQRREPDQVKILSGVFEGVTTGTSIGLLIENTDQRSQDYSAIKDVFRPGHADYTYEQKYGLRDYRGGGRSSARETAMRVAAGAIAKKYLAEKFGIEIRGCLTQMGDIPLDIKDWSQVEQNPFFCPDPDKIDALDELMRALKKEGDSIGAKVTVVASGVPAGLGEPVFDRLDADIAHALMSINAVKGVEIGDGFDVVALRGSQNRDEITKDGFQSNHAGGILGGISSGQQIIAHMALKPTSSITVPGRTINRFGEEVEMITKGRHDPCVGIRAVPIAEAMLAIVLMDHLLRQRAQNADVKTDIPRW
pKd: −log10 of the molar value.
value.kind: pKd

Qu. I am curious: what pKd value has been reported for Cc1cc2nc3c(=O)[nH]c(=O)nc-3n(C[C@H](O)[C@H](O)[C@H](O)COP(=O)(O)O)c2cc1C [E101a] ?
Ans. < 4.70
